Reference source: patent US20170355774A1

Please go through the items and note down their log10 of koff.
# tested-target: T1, hGITR.mmh (human)
# T1 construct: soluble monomeric construct; also called human (h) GITR.mmh; monomeric human GITR
# T1 chain: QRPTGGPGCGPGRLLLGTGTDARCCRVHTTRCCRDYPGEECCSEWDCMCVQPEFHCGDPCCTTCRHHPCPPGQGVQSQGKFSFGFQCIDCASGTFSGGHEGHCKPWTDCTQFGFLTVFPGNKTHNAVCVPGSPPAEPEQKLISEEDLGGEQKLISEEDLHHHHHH
# test-method-notes: SPR 37C, mAb capture
Could you please treat all values as log10 of koff in s⁻¹?

binder: H1H14491P (antibody, human IgG1, V domains shown, human IgG1 (H1H)) VH: QVQLVESGGGVVQPGRSLRLSCVASGFTFSDYGMHWVRQAPGKGLEWVAVIWYEGSNKYYADSVTGRFTISRDNSKNTLFLQMNSLKAEDTAEYYCAKDGGQLAYQYYYGMDVWGQGTTVTVSS VL: AIQMTQSPSSLSASVGDRVTLTCRASQGIRNDLGWYQQKPGKAPKSLIYAASNLQSGVPSRFSGSGSGTDFTLTISSLQPEDSATYYCLQDYNYPRTFGQGTKVEIK
log10 of koff: -2.79

binder: H4H14525P (antibody, human IgG4, V domains shown, human IgG4 (H4H)) VH: QVQLVESGGGVVQPGRSLRLSCAASGFTFSSYGMHWVRQAPGKGLEWVAVIWYVGSNKYYGESVKGRFTISRDNSKNTLYLQMNSLRDEDTAIYYCARGGQLGSFYYYGMDVWGQGTTVTVSS VL: DIQMTQSPSSLSASVGDRVTITCRASQGIRNDLGWYQQKPGKAPKRLIYDVSSLQSGVPSRFSGSGSGTEFTLTISSLQPEDLATYYCLQHNSYPWTFGQGTKVEIK
log10 of koff: -1.78

binder: H4H14528P (antibody, human IgG4, V domains shown, human IgG4 (H4H)) VH: QVQLVESGGGVVQPGRSLRISCAASGFTFNNYGFHWVRQAPGRGLEWVAVIWYSGSNKYYGDSVKGRFTISRDNSKNILYLQMNSLRAEDTAIYYCARFPFSSSWLLDYWGQGTLVTVSS VL: DIQLTQSPSFLSASVGDRVTFTCWASQGISDYLAWYQQKPGKAPKLLIYAASALQSGVPSRFSGSGSGTEFTLTVSSLQPEDFATYYCQQLNSYPFTFGPGTKVDIK
log10 of koff: -2.28

binder: H4H14516P (antibody, human IgG4, V domains shown, human IgG4 (H4H)) VH: EVQLVESGGGLVQPGGSLRLSCAASGFTFSNYEMYWVRQAPGKGLEWVSYISSSGTTIYYADSVKGRFSVSRENARSSLYLQMNSLRVEDSAVYFCAKYNWNSFYGLDVWGQGTTVTVSS VL: AIQMTQSPSSLSASVGDRVTITCRASQDIRNDLGWYQQKPGKAPKLLISAASSLQGGVPSRFSGSGSGTDFTLTISSLQPADFATYYCLQEYNYALTFGGGTKVEIK
log10 of koff: -2.13

Okay, now this binder:
Ask | Returns the measured log10 of koff for the input binder. Input: H4H14521P (antibody, human IgG4, V domains shown, human IgG4 (H4H)) VH: EVQLVESGGGLVQPGGSLRLSCAASGFTFRVYEMNWVRQAPGKGLEWISYIGSSGFTIYYADSVKGRFTISRDNAKNSLFLQLNSLRAEDTAVYYCARGWNDGVPNYLGMDVWGQGTTVTVSS VL: DIQMTQSPSSLSASVGDRVTITCQASQDINKYLNWYQQKPGKAPKLLIYDASNLETGVPSRFSGSGSGTDFTFTISSLQPEDIARYHCQQYDKIPLTFGGGTKVEIK
Reply | -2.11
